Give measured binding score for each item. Keep answers brief.
- target: Circumsporozoite protein (CSP) (Plasmodium falciparum (isolate 3D7), UniProt Q7K740)
- Sequence (Q7K740 19-374): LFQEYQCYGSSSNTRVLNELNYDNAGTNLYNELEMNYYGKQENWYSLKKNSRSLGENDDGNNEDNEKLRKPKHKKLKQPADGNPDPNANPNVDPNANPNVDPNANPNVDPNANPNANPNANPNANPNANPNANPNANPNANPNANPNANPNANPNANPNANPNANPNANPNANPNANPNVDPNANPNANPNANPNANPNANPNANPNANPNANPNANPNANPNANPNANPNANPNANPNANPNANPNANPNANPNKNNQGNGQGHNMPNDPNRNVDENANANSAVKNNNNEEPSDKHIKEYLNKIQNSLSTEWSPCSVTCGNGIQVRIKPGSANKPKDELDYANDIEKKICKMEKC
- testName: AVEXIS screen signal:noise (double-corrected)

Look up binding score for this binder: ADP302 (protein, bait human Fc-tagged dimer) MAAWKSWTALRLCATVVVLDMVVCKGFVEDLDESFKENRNDDIWLVDFYAPWCGHCKKLEPIWNEVGLEMKSIGSPVKVGKMDATSYSSIASEFGVRGYPTIKLLKGDLAYNYRGPRTKDDIIEFAHRVSGALIRPLPSQQMFEHMQKRHRVFFVYVGGESPLKEKYIDAASELIVYTYFFSASEEVVPEYVTLKEMPAVLVFKDETYFVYDEYEDGDLSSWINRERFQNYLAMDGFLLYELGDTGKLVALAVIDEKNTSVEHTRLKSIIQEVARDYRDLFHRDFQFGHMDGNDYINTLLMDELTVPTVVVLNTSNQQYFLLDRQIKNVEDMVQFINNILDGTVEAQGGDSILQRLKRIVFDAKSTIVSIFKSSP 1.19

Fill blank: measured binding score of the binder ADP267 (protein, bait human Fc-tagged dimer) CKYKKSSGQLWSWMVCLAGLCAVCLLILSPFWGLILFSVSCFLMYTYLSGQELLPVDQKAVLVTGGDCGLGHALCKYLDELGFTVFAGVLNENGPGAEELRRTCSPRLSVLQMDITKPVQIKDAYSKVAAMLQDRGLWAVINNAGVLGFPTDGELLLMTDYKQCMAVNFFGTVEVTKTFLPLLRKSKGRLVNVSSMGGGAPMERLASYGSSKAAVTMFSSVMRLELSKWGIKVASIQPGGFLTNIAGTSDKWEKLEKDILDHLPAEVQEDYGQDYILAQRNFLLLINSLASKDFSPVLRDIQHAILAKSPFAYYTPGKGAYLWICLAHYLPIGIYDYFAKRHFGQDKPMPRALRMPNYKKKAT is ____. 0.806

Sourced from paper PMC11098746
